Where do these numbers come from? They come from patent US20200131274A1.

# SYSTEM: human prostate specific membrane antigen (PSMA), full-length, on cells (human, UniProt Q04609 1-750)
# Sequence (Q04609 whole entry): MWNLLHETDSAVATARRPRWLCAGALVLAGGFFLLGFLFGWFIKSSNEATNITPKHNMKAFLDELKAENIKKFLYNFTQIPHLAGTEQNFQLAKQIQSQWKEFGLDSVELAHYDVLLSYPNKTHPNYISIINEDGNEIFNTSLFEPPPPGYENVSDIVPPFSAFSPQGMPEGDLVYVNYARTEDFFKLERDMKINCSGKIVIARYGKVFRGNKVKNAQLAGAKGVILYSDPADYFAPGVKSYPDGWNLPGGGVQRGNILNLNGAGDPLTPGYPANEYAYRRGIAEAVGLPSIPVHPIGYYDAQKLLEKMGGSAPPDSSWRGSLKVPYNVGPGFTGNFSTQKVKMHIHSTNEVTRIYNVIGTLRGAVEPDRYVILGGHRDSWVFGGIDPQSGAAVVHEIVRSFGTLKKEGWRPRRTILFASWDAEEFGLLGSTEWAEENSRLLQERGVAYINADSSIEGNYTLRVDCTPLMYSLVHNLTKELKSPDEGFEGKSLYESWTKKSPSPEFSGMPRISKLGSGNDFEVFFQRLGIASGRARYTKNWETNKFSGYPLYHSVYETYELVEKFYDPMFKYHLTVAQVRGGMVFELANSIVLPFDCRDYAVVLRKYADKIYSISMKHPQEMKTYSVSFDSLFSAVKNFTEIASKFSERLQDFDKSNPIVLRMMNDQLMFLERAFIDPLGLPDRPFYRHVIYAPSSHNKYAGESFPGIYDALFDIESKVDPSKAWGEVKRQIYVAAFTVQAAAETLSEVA
# RUN DESCRIPTION: cell-based or functional assay
Listed here are binders together with their documented IC50 (nM), cytotoxicity on DU145 PSMA cells, 72 h.
READOUT: IC50 (nM), cytotoxicity on DU145 PSMA cells, 72 h

{"BINDER": "HiPEG A-His6 val-cit-PAB-MMAE (VHH, HiPEG val-cit-PAB-MMAE attached via the C-terminal His6-tag, DAR 1) VHH: EVQLVESGGGVVQPGRSLRLSCAASGFSFSGYGMHWVRQAPGKGLEWVAYISYDGSNKYYADSVKGRFTISRDNSKNTLYLQMNSLRAEDTAVYYCAKDPAWGLRLGESSSYDFDIWGQGTMVTVSS", "NUMERIC VALUE": 0.55}
{"BINDER": "HiPEG B-1-A-His6 val-cit-PAB-MMAE (bispecific antibody, HiPEG val-cit-PAB-MMAE attached via the C-terminal His6-tag, DAR 1) EVQLLESGGGLVQPGGSLRLSCAASGFSFSSYAMSWVRQAPGKGLEWVSSIGENDGTTDYADSVKGRFTISRDNSKSMLYLQMNSLRVEDTAVYYCVKDGVHWGQGTLVTVSSGGGGSGGGGSEVQLVESGGGVVQPGRSLRLSCAASGFSFSGYGMHWVRQAPGKGLEWVAYISYDGSNKYYADSVKGRFTISRDNSKNTLYLQMNSLRAEDTAVYYCAKDPAWGLRLGESSSYDFDIWGQGTMVTVSS", "NUMERIC VALUE": 0.1}
{"BINDER": "HiPEG B-His6 val-cit-PAB-MMAE (VHH, HiPEG val-cit-PAB-MMAE attached via the C-terminal His6-tag, DAR 0.9) VHH: EVQLLESGGGLVQPGGSLRLSCAASGFSFSSYAMSWVRQAPGKGLEWVSSIGENDGTTDYADSVKGRFTISRDNSKSMLYLQMNSLRVEDTAVYYCVKDGVHWGQGTLVTVSS", "NUMERIC VALUE": 4.1}
{"BINDER": "HiPEG A-2-B-His6 val-cit-PAB-MMAE (bispecific antibody, HiPEG val-cit-PAB-MMAE attached via the C-terminal His6-tag, DAR 1) EVQLVESGGGVVQPGRSLRLSCAASGFSFSGYGMHWVRQAPGKGLEWVAYISYDGSNKYYADSVKGRFTISRDNSKNTLYLQMNSLRAEDTAVYYCAKDPAWGLRLGESSSYDFDIWGQGTMVTVSSGGGGSGGGGSGGGGSGGGGSGGGGSGGGGSEVQLLESGGGLVQPGGSLRLSCAASGFSFSSYAMSWVRQAPGKGLEWVSSIGENDGTTDYADSVKGRFTISRDNSKSMLYLQMNSLRVEDTAVYYCVKDGVHWGQGTLVTVSSAAAHHHHHH", "NUMERIC VALUE": 0.29}
{"BINDER": "HiPEG B-2-B-His6 val-cit-PAB-MMAE (VHH, HiPEG val-cit-PAB-MMAE attached via the C-terminal His6-tag, DAR 0.7) EVQLLESGGGLVQPGGSLRLSCAASGFSFSSYAMSWVRQAPGKGLEWVSSIGENDGTTDYADSVKGRFTISRDNSKSMLYLQMNSLRVEDTAVYYCVKDGVHWGQGTLVTVSSGGGGSGGGGSGGGGSGGGGSGGGGSGGGGSEVQLLESGGGLVQPGGSLRLSCAASGFSFSSYAMSWVRQAPGKGLEWVSSIGENDGTTDYADSVKGRFTISRDNSKSMLYLQMNSLRVEDTAVYYCVKDGVHWGQGTLVTVSS", "NUMERIC VALUE": 21}
{"BINDER": "HiPEG A-2-A-His6 val-cit-PAB-MMAE (VHH, HiPEG val-cit-PAB-MMAE attached via the C-terminal His6-tag, DAR 1) EVQLVESGGGVVQPGRSLRLSCAASGFSFSGYGMHWVRQAPGKGLEWVAYISYDGSNKYYADSVKGRFTISRDNSKNTLYLQMNSLRAEDTAVYYCAKDPAWGLRLGESSSYDFDIWGQGTMVTVSSGGGGSGGGGSGGGGSGGGGSGGGGSGGGGSEVQLVESGGGVVQPGRSLRLSCAASGFSFSGYGMHWVRQAPGKGLEWVAYISYDGSNKYYADSVKGRFTISRDNSKNTLYLQMNSLRAEDTAVYYCAKDPAWGLRLGESSSYDFDIWGQGTMVTVSSAAAHHHHHH", "NUMERIC VALUE": 0.19}
